System: VEGF-A promoter (VEGF-A-GQ) in MCF-7 cells
experimental.protocol: Dual-luciferase assay, VEGF-A promoter with VEGF-A-GQ
Assay type: cell-based, human
condition.summary: MCF-7, 24 h, peptide 0–60 μM
Procedure: MCF-7 cells are sub-cultured into 24-well microtiter plates at a cell density of 1 × 10^5 cells/well. […] Dual-luciferase assays are performed to examine the intracellular selectivity of peptides for c-MYC quadruplex isomers (Pu27, Myc22 and Pu19) over other oncogenic quadruplexes (BCL-2, VEGF-A and KRAS) of different topologies. […] Renilla and firefly Luciferase activities in 25 μl lysate are quantified by Dual-Luciferase® reporter assay system (Promega) as per manufacturer's recommendations. […]
observation.type: VEGF-A promoter activity

> print(dat)
                                  substance          observation.type    observed.measurement
1  N – KRIVKRIKKWLL – C [KR12E, dodecameric mutant peptide derived from FK13 / LL37]  VEGF-A promoter activity  no significant effects
2  N – KRIVKVIKKWLR – C [KR12D, dodecameric mutant peptide derived from FK13 / LL37]  VEGF-A promoter activity  no significant effects
